# tested target: TRAILR2 receptor on the surface of human tumor cells (human, UniProt O14763 56-440)
# procedure details: cell-based or functional assay
readout name: eff. (efficiency %), cytotoxic effect on MSTO-211H cells
Report the value in % with no unit label.

Solved entries:
| binder | unit symbol | reading |
| --- | --- | --- |
| Zapadcine-3a (antibody, V domains shown, MMAE coupled through linker PY-VC-PAB by thiol bridge coupling, cleavable; positions not given) VH: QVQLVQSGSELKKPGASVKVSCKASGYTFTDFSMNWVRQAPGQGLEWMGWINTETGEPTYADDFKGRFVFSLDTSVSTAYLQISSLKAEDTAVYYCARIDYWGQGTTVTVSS VL: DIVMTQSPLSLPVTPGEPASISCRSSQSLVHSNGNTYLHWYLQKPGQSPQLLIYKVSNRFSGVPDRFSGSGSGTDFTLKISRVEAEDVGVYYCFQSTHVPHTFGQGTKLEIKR | % | 97.5 |
| Zapadcine-3b (antibody, V domains shown, MMAE coupled through linker PY-MAA by thiol bridge coupling, non-cleavable; positions not given) VH: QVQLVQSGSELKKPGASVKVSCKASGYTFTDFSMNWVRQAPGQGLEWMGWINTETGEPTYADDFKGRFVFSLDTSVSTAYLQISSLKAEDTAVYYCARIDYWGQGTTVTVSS VL: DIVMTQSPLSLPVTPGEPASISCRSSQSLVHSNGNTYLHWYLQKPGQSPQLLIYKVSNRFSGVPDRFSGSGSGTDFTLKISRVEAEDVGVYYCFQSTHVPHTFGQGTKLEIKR | % | 91 |

// eff. (efficiency %), cytotoxic effect on MSTO-211H cells lookup, binder = Zaptuzumab (antibody, V domains shown) VH: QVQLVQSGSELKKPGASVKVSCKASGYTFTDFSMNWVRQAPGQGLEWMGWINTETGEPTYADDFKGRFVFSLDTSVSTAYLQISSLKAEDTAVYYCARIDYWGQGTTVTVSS VL: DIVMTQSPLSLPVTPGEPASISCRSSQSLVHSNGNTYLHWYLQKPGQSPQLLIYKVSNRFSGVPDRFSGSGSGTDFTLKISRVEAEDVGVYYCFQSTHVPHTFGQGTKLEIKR , result: 47.8
